# Target or test system: human somatostatin receptor subtype 5 (Homo sapiens)
# Construct: expressed in transfected cells
# Protocol description: cAMP assay for SST5R (inhibition of cAMP in CHO-K1 cells)
# Format: cell-based
# Recorded conditions: Table B; class symbols; SST5 receptor over SST2 receptor
Observation type: Fold selectivity for SST5 vs SST2

Study these solved cases before continuing.
COCCOc1ncc(C(=O)N[C@@H](C)C2CC2)c(N2CC[C@](C)(N)C2)c1-c1cc(F)cc(F)c1 +++ (+++=>500)
C[C@]1(N)CCN(c2c(C(=O)Nc3ccccc3F)cncc2-c2ccc(F)c(C#N)c2)C1 ++ (++=100 to 499)
C[C@H](NC(=O)c1cnc(C#N)c(-c2cc(F)cc(F)c2)c1N1C[C@@H](N)[C@H](F)C1)C1CC1 +++ (+++=>500)
Cc1ncc(C(=O)N[C@@H](C)C2CC2)c(N2CC[C@](C)(N)C2)c1-c1cncc(F)c1 +++ (+++=>500)
C[C@]1(N)CCN(c2c(C(=O)NCC3CC3)cnc(C#N)c2-c2cc(F)cc(F)c2)C1 +++ (+++=>500)

Request: Please tell me: Fold selectivity for SST5 vs SST2 of C[C@H](NC(=O)c1cnc(C#N)c(-c2cc(F)cc(F)c2)c1N1CC[C@](C)(N)C1)C(F)(F)F , system human somatostatin receptor subtype 5 (Homo sapiens)?
Result: ++ (++=100 to 499)

Request: Missing value: Fold selectivity for SST5 vs SST2, human somatostatin receptor subtype 5 (Homo sapiens), entry COc1ncc(C(=O)NC23CC(F)(C2)C3)c(N2CC[C@H](N)C2)c1-c1cc(F)cc(Cl)c1 . Fill in?
Result: +++ (+++=>500)

---

# Target or test system: human somatostatin receptor subtype 5 (Homo sapiens)
# Construct: expressed in transfected cells
# Protocol description: cAMP assay for SST5R (inhibition of cAMP in CHO-K1 cells)
# Type: cell-based
# Recorded conditions: Table B; class symbols; SST5 receptor over SST2 receptor
Observation type: Fold selectivity for SST5 vs SST2

Completed entries (count: 7):
Cc1ncc(C(=O)N[C@@H](C)C2CC2)c(N2CC[C@](C)(N)C2)c1-c1cccc(F)c1 +++ (+++=>500)
COc1cc(C#N)cc(-c2c(C)ncc(C(=O)N[C@@H](C)C(F)(F)F)c2N2CC[C@](C)(N)C2)c1 +++ (+++=>500)
C[C@]1(N)CCN(c2c(C(=O)NC(C3CC3)C3CC3)cncc2-c2cc(F)cc(F)c2)C1 +++ (+++=>500)
C[C@H](NC(=O)c1cnc(C#N)c(-c2ccnc(C(F)(F)F)c2)c1N1CC[C@](C)(N)C1)C(F)(F)F +++ (+++=>500)
Cc1cccc(NC(=O)c2cncc(-c3ccnc(C#N)c3)c2N2CC[C@](C)(N)C2)c1 +++ (+++=>500)
Cc1cc(C)cc(NC(=O)c2cncc(-c3cc(C)cc(C)c3)c2N2CC[C@H](N)C2)c1 ++ (++=100 to 499)
Cc1cccc2[nH]c(-c3cncc(C(=O)NC45CC(C4)C5)c3N3CC[C@](C)(N)C3)nc12 ++ (++=100 to 499)

Request: Item under review: C[C@H](NC(=O)c1cnc(OCC2CC2)c(-c2cc(F)cc(F)c2)c1N1CC[C@](C)(N)C1)C1CC1 . Reported Fold selectivity for SST5 vs SST2?
Result: +++ (+++=>500)

---

# Target or test system: human somatostatin receptor subtype 5 (Homo sapiens)
# Construct: expressed in transfected cells
# Protocol description: cAMP assay for SST5R (inhibition of cAMP in CHO-K1 cells)
# Assay type: cell-based
# Recorded conditions: Table A; inhibition of cAMP via human SST5 receptor; read-out: SST5 potency
Observation type: EC50

Compound	EC50
N#Cc1ncc(C(=O)N2CCCCC2)c(N2CC[C@H](N)C2)c1-c1cc(F)cc(F)c1	100 to 1000 nM
Cc1ncc(C(=O)NC2CCCC2)c(N2CC[C@](C)(N)C2)c1-c1ccnc(C(F)(F)F)c1	< 10 nM
C[C@]1(N)CCN(c2c(C(=O)NC3CCCCC3)cnc(C(F)(F)F)c2-c2cc(F)cc(F)c2)C1	< 10 nM
C[C@]1(N)CCN(c2c(C(=O)NCC(F)(F)F)cnc(C#N)c2-c2cc(F)cc(F)c2)C1	< 10 nM
CC(C)(C)NC(=O)c1cncc(-c2cc(F)cc(F)c2)c1N1CC[C@](C)(N)C1	10 to 100 nM

Please find the next compound below.
Request: Using the record for COc1ncc(C(=O)NC2CCC(C(F)(F)F)CC2)c(N2CC[C@H](N)C2)c1-c1cc(F)cc(F)c1 (stereo partly shown) , report its EC50.
Result: 100 to 1000 nM

---

# Target or test system: human somatostatin receptor subtype 2 (Homo sapiens, UniProt P30874)
# Sequence (P30874 whole entry): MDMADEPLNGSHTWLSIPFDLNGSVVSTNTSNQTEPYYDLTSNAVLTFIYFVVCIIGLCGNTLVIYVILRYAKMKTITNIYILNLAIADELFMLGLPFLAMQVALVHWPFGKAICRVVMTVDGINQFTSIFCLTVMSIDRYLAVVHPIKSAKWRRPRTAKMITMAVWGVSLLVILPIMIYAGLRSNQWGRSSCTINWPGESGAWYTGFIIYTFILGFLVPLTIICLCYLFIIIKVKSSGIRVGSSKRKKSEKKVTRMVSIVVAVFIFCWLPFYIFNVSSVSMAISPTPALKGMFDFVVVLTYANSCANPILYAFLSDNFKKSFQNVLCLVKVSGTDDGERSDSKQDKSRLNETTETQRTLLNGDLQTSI
# Protocol description: cAMP assay for SST2R (inhibition of cAMP in CHO-K1 cells)
# Recorded conditions: Table B; inhibition of cAMP via human SST2 receptor; read-out: SST2 potency
EC50 listing for selected molecules.

Examples from the recorded data:
Molecule	EC50
C[C@H](NC(=O)c1cnc(OCCCC(=O)O)c(-c2cc(F)cc(F)c2)c1N1CC[C@](C)(N)C1)C1CC1	> 1000 nM
Cc1cc(C)cc(-c2cncc(C(=O)NC3CCC(F)(F)CC3)c2N2CC[C@](C)(N)C2)c1	100 to 1000 nM
COc1ncc(C(=O)N[C@@H](C)C(F)(F)F)c(N2CC[C@](C)(N)C2)c1-c1cc(F)cc(OC(F)F)c1	100 to 1000 nM
COc1ncc(C(=O)NC23CC(F)(C2)C3)c(N2CC[C@H](N)C2)c1-c1cc(F)cc(F)c1	> 1000 nM
C[C@H](NC(=O)c1cnc(OCc2ccccc2)c(-c2cc(F)cc(F)c2)c1N1CC[C@](C)(N)C1)C1CC1	100 to 1000 nM

Request: What value of EC50 on human somatostatin receptor subtype 2 (Homo sapiens, UniProt P30874) does Cc1cccc2[nH]c(-c3cncc(C(=O)N4CCCC4C4CC4)c3N3CC[C@](C)(N)C3)nc12 (stereo partly shown) have?
Result: 10 to 100 nM

Request: Request - read-out EC50 | tested on human somatostatin receptor subtype 2 (Homo sapiens, UniProt P30874) | molecule CCOc1cc(-c2c(C(F)(F)F)ncc(C(=O)N[C@@H](C)C3CC3)c2N2CC[C@](C)(N)C2)ccn1
Result: > 1000 nM

---

# Target or test system: human somatostatin receptor subtype 5 (Homo sapiens, UniProt P35346)
# Construct: expressed in transfected cells
# Sequence (P35346 whole entry): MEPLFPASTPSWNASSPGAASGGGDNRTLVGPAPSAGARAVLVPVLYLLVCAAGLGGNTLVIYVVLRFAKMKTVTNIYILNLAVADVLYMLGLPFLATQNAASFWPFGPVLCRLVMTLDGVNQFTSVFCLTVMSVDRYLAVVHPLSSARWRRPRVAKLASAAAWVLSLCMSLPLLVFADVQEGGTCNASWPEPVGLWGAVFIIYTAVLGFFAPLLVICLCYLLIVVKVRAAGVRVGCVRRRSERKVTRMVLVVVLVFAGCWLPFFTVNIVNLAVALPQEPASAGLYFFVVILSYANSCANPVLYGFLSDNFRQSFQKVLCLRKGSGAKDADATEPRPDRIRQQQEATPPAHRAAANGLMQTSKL
# Protocol description: cAMP assay for SST5R (inhibition of cAMP in CHO-K1 cells)
# Assay type: cell-based
# Recorded conditions: Table A; inhibition of cAMP via human SST5 receptor; read-out: SST5 potency
Observation type: EC50

Compound	Target or test system	EC50
Cc1ncc(C(=O)N[C@@H](C)C(F)(F)F)c(N2CC[C@](C)(N)C2)c1-c1cc(F)cc(OC(F)F)c1	human somatostatin receptor subtype 5 (Homo sapiens, UniProt P35346)	< 10 nM
CC(C)(NC(=O)c1cncc(-c2cc(F)cc(F)c2)c1N1CC[C@](C)(N)C1)C1CC1	human somatostatin receptor subtype 5 (Homo sapiens, UniProt P35346)	10 to 100 nM

Request: // map N#Cc1ncc(C(=O)NC23CC(C2)C3)c(N2CC[C@H](N)C2)c1-c1cccc(Cl)c1 to recorded EC50 (system: human somatostatin receptor subtype 5 (Homo sapiens, UniProt P35346))
Result: < 10 nM

Request: // fetch human somatostatin receptor subtype 5 (Homo sapiens, UniProt P35346) EC50 for C[C@]1(N)CCN(c2c(C(=O)N[C@@H]3CCCC[C@@H]3F)cncc2-c2cc(F)cc(F)c2)C1 (mixture of isomers)
Result: < 10 nM

---

# Target or test system: human somatostatin receptor subtype 5 (Homo sapiens, UniProt P35346)
# Construct: expressed in transfected cells
# Protocol description: cAMP assay for SST5R (inhibition of cAMP in CHO-K1 cells)
# Type: cell-based
# Recorded conditions: Table B; class symbols; SST5 receptor over SST2 receptor
Observation type: Fold selectivity for SST5 vs SST2

Recorded results for 6 compounds are shown here.
Cc1ncc(C(=O)NC2CC(F)(F)C2)c(N2CC[C@](C)(N)C2)c1-c1cc(F)cc(OC(F)F)c1 +++ (+++=>500)
COc1ncc(C(=O)N[C@@H](C)C(F)(F)F)c(N2CC[C@H](N)C2)c1-c1cc(F)cc(Cl)c1 +++ (+++=>500)
COc1cc(C#N)cc(-c2c(C)ncc(C(=O)NC3CC(F)(F)C3)c2N2CC[C@](C)(N)C2)c1 +++ (+++=>500)
C[C@H](NC(=O)c1cnc(C(F)(F)F)c(-c2cc(F)cc(F)c2)c1N1CC[C@H](N)C1)C(F)(F)F +++ (+++=>500)
COc1ncc(C(=O)N[C@@H](C)C2CC2)c(N2CC[C@](C)(N)C2)c1-c1cc(F)cc(C(F)(F)F)c1 +++ (+++=>500)
COc1cc(-c2c(C)ncc(C(=O)NC3CCCCC3)c2N2CC[C@](C)(N)C2)ccn1 +++ (+++=>500)

The record that follows has no Fold selectivity for SST5 vs SST2 shown yet.
Request: I have this compound here, COc1ncc(C(=O)NC2CC(F)(F)C2)c(N2CC[C@H](N)C2)c1-c1cc(F)cc(Cl)c1 , and I need its recorded Fold selectivity for SST5 vs SST2.
Result: +++ (+++=>500)

The measured values listed here are drawn from patent US12600709B2.
